Reported values of glycan array binding signal (z-score) for individual entries
# System Tested: Gal3S6S(b1-4)GlcNAc6S
# Test Method Notes: glycan array binding signal (z-score within array); higher = stronger binding
# Particulars: glycan notation: IUPAC condensed, linker removed
Only a selection was taken, and the strongest signals are over-represented in it overall.
Reply with the value as a number alone.

Examples with answers:
- Binder: "PEB3 Cj0289c (Campylobacter jejuni), Q9PIK7 (protein) MDVNLYGPGGPHTALKDIANKYSEKTGVKVNVNFGPQATWFEKAKKDADILFGASDQSALAIASDFGKDFNVSKIKPLYFREAIILTQKGNPLKIKGLKDLANKKVRIVVPEGAGKSNTSGTGVWEDMIGRTQDIKTIQNFRNNIVAFVPNSGSARKLFAQDQADAWITWIDWSKSNPDIGTAVAIEKDLVVYRTFNVIAKEGASKETQDFIAYLSSKEAKEIFKKYGWRE"
  glycan array binding signal (z-score): 2.8
- Binder: "Wzz (Escherichia coli) (protein) MRTWKFPSVRVMMRVENNNVSGQNHDPEQIDLIDLLVQLWRGKMTIIISVIVAIVLAIGYLAVAKEKWTSTAIITQPDVGQIAGYNNAMNVIYGQAAPKVSDLQETLIGRFSSAFSALAETLDNQEEPEKLTIEPSVKNQQLPLTVSYVGQTAEGAQMKLAQYIQQVDDKVNQELEKDLKDNIALGRKNLQDSLRTQEVVAQEQKDLRIRQIQEALQYANQAQVTKPQIQQTGEDITQDTLFLLGSEALESMIKHEATRPLVFSSNYYQTRQNLLDIDNLDVDKLDIHAYLYVMKPTLPIRRDSPKKAITLILAVLLGGMVGAGIVLGRNALRNYNAK"
  glycan array binding signal (z-score): 16.9
- Binder: "Epa2 (Candida glabrata) (protein) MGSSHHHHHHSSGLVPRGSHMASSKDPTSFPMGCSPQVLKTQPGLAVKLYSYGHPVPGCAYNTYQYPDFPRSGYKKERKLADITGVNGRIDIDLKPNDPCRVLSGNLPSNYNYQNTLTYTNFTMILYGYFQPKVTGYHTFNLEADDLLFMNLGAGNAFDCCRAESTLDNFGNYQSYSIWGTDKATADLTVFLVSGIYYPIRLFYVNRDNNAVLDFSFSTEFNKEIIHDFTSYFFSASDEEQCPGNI"
  glycan array binding signal (z-score): 2.14
- Binder: "Tp0751, 83732 (protein) MSYYHHHHHHLESTSLYKKAGFQHGHVPPRRIPPHDTFGALPTAALPSNARDTAAHPSDTADNTSGSSTTTDPRSHGNAPPAPVGGAAQTHTQPPVQTAMRIALWNRATHGEQGALQHLLAGLWIQTEISPNSGDIHPLLFFDREHAEITFSRASVQEIFLVDSAHTHRKTVSFLTRNTAISSIRRRLEVTFESHEVIHVRAVEDVARLKIGSTSMWDGQYTRYHAGPASAPSP"
  glycan array binding signal (z-score): 2.54

Please examine the following record next.
*Q* Looking for the measured glycan array binding signal (z-score) of AFL5 (Aspergillus fumigatus), Q4WB00 (protein) MDNFMEMTKKLGHQPELLRLRALDATYDDALEGKLVVAPLDMSEPGKKILDSGTADGTWLRNVRSKQSVPHDYYGSDVEGELFPKDPDGITYFAHSFKDPWPQQYLGFFDLVHIRGSLAGSAPEGPAPVIQNLTTLLKPGGWVQLMEMNAFSPPPNGPAMTDFAKMASEMFTGIGVGDFANNNKSMLEDAGLKNVQEKRVIVNLGKKAKPELHDQSIHGVTGPIVPLTSVARTVKSSFTGEQLDALPARVKEELETEGGQVEMIIAFGQKA , can you help?
*A* 0.29
